Recorded values, source ChEMBL document CHEMBL3112392.

- Test system: K562
- assay text: Cytotoxicity against human K562 cells after 48 hrs by MTT assay
- Assay type: functional, cell-based
- setup conditions: K562, 48 h
API: label(entry) gives Y if the entry's IC50 is strictly smaller than 5 µM; on equality or larger values it gives N.

>  <input smiles>
CN(C)CCOc1ccc(-c2c(-c3ccc(OCCN(C)C)cc3)c3ccccc3oc2=O)cc1

>  <assigned class>
N

$$$$
>  <input smiles>
CN1CCN(CCOc2ccc(-c3c(-c4ccccc4)c4ccc(OCCN5CCN(C)CC5)cc4oc3=O)cc2)CC1

>  <assigned class>
Y

$$$$
>  <input smiles>
CCN(CC)CCOc1ccc(-c2c(-c3ccc(OCCN(CC)CC)cc3)c3ccccc3oc2=O)cc1

>  <assigned class>
N

$$$$
>  <input smiles>
CN(C)CCOc1ccc(-c2c(-c3ccccc3)c3ccc(OCCN(C)C)cc3oc2=O)cc1

>  <assigned class>
N

$$$$
>  <input smiles>
CCN(CC)CCOc1ccc(-c2c(-c3ccccc3)c3ccc(OCCN(CC)CC)cc3oc2=O)cc1

>  <assigned class>
Y

$$$$
>  <input smiles>
O=c1oc2ccccc2c(-c2ccc(OCCN3CCCC3)cc2)c1-c1ccc(OCCN2CCCC2)cc1

>  <assigned class>
N

$$$$
>  <input smiles>
O=c1oc2cc(OCCN3CCCC3)ccc2c(-c2ccccc2)c1-c1ccc(OCCN2CCCC2)cc1

>  <assigned class>
N

$$$$
